Data origin: the supplement of paper PMC9112550

Some sequences, each annotated with its measured shrunken log2 fold change.
# Test system: Escherichia coli TOP10;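 note: peptides expressed intracellularly from a pBAD plasmid library in pooled LB shake-flask culture, induced with 0.3% L-arabinose, DNA abundance read by NGS, three biological replicates, DESeq2 with apeglm shrinkage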
# run.description: shrunken log2 fold change of peptide-encoding DNA abundance (4.5 h post-induction vs induction); higher = less antimicrobial activity (less host growth inhibition)
# settings: time post-induction: 4.5 h; library: site-saturation at positions 5, 18, 19, 20

Use these answered entries as a reference point.
| record.sequence | quantity.kind | test.result |
| --- | --- | --- |
| RRIRPRPPRLPRPRPRPPETPRP | shrunken log2 fold change | 0.407 |
| RRIRARPPRLPRPRPRPCMDPRP | shrunken log2 fold change | 0.0143 |
| RRIRARPPRLPRPRPRPQIYPRP | shrunken log2 fold change | -0.354 |
| RRIRWRPPRLPRPRPRPWQVPRP | shrunken log2 fold change | 0.172 |
| RRIRNRPPRLPRPRPRPSPFPRP | shrunken log2 fold change | -0.287 |
| RRIRERPPRLPRPRPRPQAQPRP | shrunken log2 fold change | -0.0773 |
| RRIRPRPPRLPRPRPRPRESPRP | shrunken log2 fold change | 0.0752 |

Alright, here's another sequence for you.
get_value(item= RRIRCRPPRLPRPRPRPDFMPRP , readout=shrunken log2 fold change) returns -0.163
